- study-system: farnesyl protein transferase (FPT), partially purified from rat brain (Rattus norvegicus, UniProt Q02293+Q04631)
- Construct: were partially purified from rat brain by ammonium sulfate fractionation followed by Q-Sepharose
- Sequence (Q02293 whole entry, one chain of several): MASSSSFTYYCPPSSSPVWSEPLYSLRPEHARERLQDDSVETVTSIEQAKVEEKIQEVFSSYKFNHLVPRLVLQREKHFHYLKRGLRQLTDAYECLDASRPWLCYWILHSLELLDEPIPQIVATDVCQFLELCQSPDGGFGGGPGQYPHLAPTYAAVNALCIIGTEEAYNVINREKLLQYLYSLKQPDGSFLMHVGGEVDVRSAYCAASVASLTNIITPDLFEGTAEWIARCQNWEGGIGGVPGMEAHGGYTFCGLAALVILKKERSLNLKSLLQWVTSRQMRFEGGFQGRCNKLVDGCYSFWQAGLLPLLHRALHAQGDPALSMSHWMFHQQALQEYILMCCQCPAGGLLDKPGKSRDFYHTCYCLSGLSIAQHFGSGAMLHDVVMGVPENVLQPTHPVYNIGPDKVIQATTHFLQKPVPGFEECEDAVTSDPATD
- assay-procedure: Inhibition of farnesyl protein transferase (transfer of [3H]farnesyl to Ras-CVLS)
- Type: biochemical
- setup-conditions: FPT IC50, Ras-CVLS farnesylation, partially purified rat brain FPT
pIC50: −log10 of the molar value.
Outcome: 1.0 for pIC50 of at least 6; 0.0 for anything lower.

molecule	label-class
CN(C)c1ccc(CC(=O)N2CCN(C3c4ccc(Cl)cc4CCc4cccnc43)CC2)cc1 (centres unmarked)	0.0
O=C(Cc1cccnc1)N1CCN([C@@H]2c3ccc(Cl)cc3CCc3cccnc32)CC1	0.0
O=C(Cc1ccccc1)N1CCN(C2c3ccc(Cl)cc3CCc3cccnc32)CC1 (centres unmarked)	0.0
O=C(Cc1ccccn1)N1CCN(C2c3ccc(Cl)cc3CCc3cccnc32)CC1 (centres unmarked)	1.0
O=C(Cc1cccnc1)N1CCC(C2c3ccc(Cl)cc3C=Cc3cccnc32)CC1 (centres unmarked)	1.0

* * *

- study-system: farnesyl protein transferase (FPT), partially purified from rat brain (Rattus norvegicus, UniProt Q02293+Q04631)
- Construct: were partially purified from rat brain by ammonium sulfate fractionation followed by Q-Sepharose
- assay-procedure: Inhibition of farnesyl protein transferase (transfer of [3H]farnesyl to Ras-CVLS)
- Format: biochemical
- setup-conditions: Ras-CVLS farnesylation, partially purified rat brain FPT; read-out: FPT IC50
Entries and their log10 of IC50
measurement-name: log10 of IC50 (log10 of the value in µM)

compound	measurement-name	recorded-value
O=C(c1cc[n+]([O-])c2ccccc12)N1CCC(=C2c3ccc(Cl)cc3CCc3cccnc32)CC1	log10 of IC50	0.99
O=C(Cc1cccnc1)N1CCC(=C2c3ccc(Cl)cc3C=Cc3cccnc32)CC1	log10 of IC50	0.25
Cc1cc(C(=O)N2CCC(=C3c4ccc(Cl)cc4CCc4cccnc43)CC2)cc(Cl)[n+]1[O-]	log10 of IC50	1.06
O=C(Nc1ccccn1)N1CCN(C2c3ccc(Cl)cc3CCc3cccnc32)CC1 (stereo not drawn)	log10 of IC50	-0.02
O=C(Cc1ccccc1)N1CCC(=C2c3ccc(Cl)cc3CCc3cccnc32)CC1	log10 of IC50	-0.10
C[S+]([O-])c1ccnc2c1CCc1cc(Cl)ccc1C2=C1CCN(C(=O)Cc2cccnc2)CC1 (stereo not drawn)	log10 of IC50	0.69
CC(O)C(=O)N1CCC(=C2c3ccc(Cl)cc3CCc3cccnc32)CC1 (stereo not drawn)	log10 of IC50	1.20
O=C1CCC(C(=O)N2CCC(=C3c4ccc(Cl)cc4CCc4cccnc43)CC2)O1 (stereo not drawn)	log10 of IC50	1.13
COc1cc(C(=O)N2CCC(=C3c4ccc(Cl)cc4CCc4cccnc43)CC2)cc(OC)c1O	log10 of IC50	0.79
O=C(c1ccnc(Cl)c1)N1CCC(=C2c3ccc(Cl)cc3CCc3cccnc32)CC1	log10 of IC50	0.86
O=C(Cc1ccncc1)N1CCC(=C2c3ccc(Cl)cc3CCc3cc(Br)cnc32)CC1	log10 of IC50	-1.22
O=C1CCC(C(=O)N2CCC(=C3c4ccc(Cl)cc4CCc4cccnc43)CC2)CC1	log10 of IC50	0.23

* * *

Entries and their pIC50
- study-system: farnesyl protein transferase (FPT), partially purified from rat brain (Rattus norvegicus, UniProt Q02293+Q04631)
- Construct: were partially purified from rat brain by ammonium sulfate fractionation followed by Q-Sepharose
- assay-procedure: Inhibition of farnesyl protein transferase (transfer of [3H]farnesyl to Ras-CVLS)
- Type: biochemical
- setup-conditions: Ras-CVLS farnesylation, partially purified rat brain FPT; read-out: FPT IC50
pIC50: −log10 of the molar value.
measurement-name: pIC50

compound	recorded-value
O=C(Nc1cccnc1)N1CCN([C@@H]2c3ccc(Cl)cc3CCc3cccnc32)CC1 [224 (6.10)]	5.49
O=C(CCc1ccc(O)cc1)NCC(=O)N1CCN(C2c3ccc(Cl)cc3CCc3cccnc32)CC1 (centres unmarked) [Example 218]	5.00
O=C(N[C@@H]1C[C@H]1c1ccccc1)N1CCC(=C2c3ccc(Cl)cc3CCc3cccnc32)CC1 [Example 101]	5.34
O=C(c1ccccc1)N1CCC(=C2c3ccc(Cl)cc3CCc3cccnc32)CC1 [Example 54]	5.28
O=C(Cc1ccncc1)N1CCC(=C2c3ccc(Cl)cc3CCc3cc(I)cnc32)CC1 [Example 400]	7.17
O=C(Cc1ccncc1)N1CCC(=C2c3ccc(Cl)cc3CCc3cc([N+](=O)[O-])cnc32)CC1 [Example 358]	6.24
O=C1Cc2cc(Cl)ccc2C(=C2CCN(C(=O)Cc3ccncc3)CC2)c2ncccc21 [Example 281]	5.54
O=C(Cc1ccc(O)c(O)c1)N1CCC(C2c3ccc(Cl)cc3CCc3cccnc32)CC1 (centres unmarked) [Example 321]	5.22
O=C(c1cn[nH]c1)N1CCC(=C2c3ccc(Cl)cc3CCc3cccnc32)CC1 [Example 18]	5.31
O=C(C(=O)N1CCC(=C2c3ccc(Cl)cc3CCc3cccnc32)CC1)c1ccccc1 [Example 296]	5.39
O=C(Nc1cccnc1)N1CCC(=C2c3ccc(Cl)cc3C=Cc3cccnc32)CC1 [Example 277]	5.64
O=C(C1CCC(=NO)CC1)N1CCC(=C2c3ccc(Cl)cc3CCc3cccnc32)CC1 (centres unmarked) [Example 104]	5.33
O=C(Cc1c(O)cccc1O)N1CCC(=C2c3ccc(Cl)cc3CCc3cccnc32)CC1 [Example 125]	4.99
O=C(Cc1cccnc1)N1CCN(C2c3ccc(Cl)cc3CCc3cc(Br)cnc32)CC1 (centres unmarked) [Example 351]	6.77
O=C(Cc1csc2ccccc12)N1CCC(=C2c3ccc(Cl)cc3CCc3cccnc32)CC1 [Example 221]	5.43
O=C(Cc1cccnc1)N1CCC(=C2c3ccc(Cl)cc3CCc3ccc[n+]([O-])c32)CC1 [Example 229]	5.36
O=C(NCc1ccccc1)N1CCC(C2c3ccc(Cl)cc3CCc3cccnc32)CC1 (centres unmarked) [Example 318]	5.39
O=C(Cc1cccnc1)N1CCC(=C2c3ccc(Cl)cc3CCc3c(On4nnc5ccccc54)ccnc32)CC1 [Example 251]	6.12
Cc1cnc2c(c1)CCc1cc(Cl)ccc1C2=C1CCN(C(=O)Cc2cccnc2)CC1 [Example 303]	6.26
N[C@@H](CO)C(=O)N1CCC(CC(=O)N2CCN(C3c4ccc(Cl)cc4CCc4cccnc43)CC2)CC1 (some centres unmarked) [Example 433-A]	5.96
O=C(OC(C(=O)N1CCC(=C2c3ccc(Cl)cc3CCc3cccnc32)CC1)c1ccccc1)c1ccncc1 (centres unmarked) [Example 298]	5.34
O=C(c1ccnnc1)N1CCC(=C2c3ccc(Cl)cc3CCc3cccnc32)CC1 [Example 14]	5.34
CC(=O)N1CCC(C(=O)N2CCN([C@H]3c4ccc(Cl)cc4CCc4cccnc43)CC2)CC1 [226 (5.101)]	5.74
O=C(Cc1ccc(O)cc1)NCC(=O)N1CCN(C2c3ccc(Cl)cc3CCc3cccnc32)CC1 (centres unmarked) [Example 210]	5.10
O=C(Nc1cccnc1)N1CCC(=C2c3ccc(Cl)cc3CCc3c(O)ccnc32)CC1 [Example 263]	5.01
O=C(CN1C(=O)c2ccccc2S1(=O)=O)N1CCC(=C2c3ccc(Cl)cc3CCc3cccnc32)CC1 [Example 85]	5.70
O=C(c1ccnc2ccccc12)N1CCC(=C2c3ccc(Cl)cc3CCc3cccnc32)CC1 [Example 38]	4.92
O=C(c1cccnc1)N1CCC(=C2c3ccc(Cl)cc3CCc3cccnc32)CC1 [Example 26]	5.20
S=C(c1ccccc1)N1CCC(=C2c3ccc(Cl)cc3CCc3cccnc32)CC1 [Example 121]	5.85
CC(C)(C(=O)N1CCC(C2c3ccc(Cl)cc3CCc3cccnc32)CC1)c1ccccc1 (centres unmarked) [Example 316]	5.90
O=C(Cc1cccnc1)N1CCC(=C2c3ccc(Cl)cc3CCc3c2ncc(Br)c3O)CC1 [Example 253]	5.37
O=C(Cn1cncn1)N1CCC(=C2c3ccc(Cl)cc3CCc3cc(Br)cnc32)CC1 [Example 412]	6.28

* * *

- study-system: geranylgeranyl protein transferase (GGPT) I (Rattus norvegicus, UniProt P53610+Q04631)
- Construct: were partially purified from rat brain by ammonium sulfate fractionation followed by Q-Sepharose
- assay-procedure: Inhibition of geranylgeranyl protein transferase I (Ras-CVLL as acceptor)
- setup-conditions: enzyme inhibition

compound	study-system	IC50
O=C(Cc1cccnc1)N1CCC(=C2c3ccc(Cl)cc3CCc3cccnc32)CC1 [Example 2]	geranylgeranyl protein transferase (GGPT) I (Rattus norvegicus, UniProt P53610+Q04631)	> 46 µM
O=C(c1ccc(O)cc1)N1CCC(=C2c3ccc(Cl)cc3CCc3cccnc32)CC1 [Example 7]	geranylgeranyl protein transferase (GGPT) I (Rattus norvegicus, UniProt P53610+Q04631)	> 45 µM
CN1CCC(CC(=O)N2CCC(=C3c4ccc(Cl)cc4CCc4c3ncc(Br)c4Cl)CC2)CC1 [Example 413]	geranylgeranyl protein transferase (GGPT) I (Rattus norvegicus, UniProt P53610+Q04631)	> 35 µM
